MEASURED ON: T1, nSR100 (Mus musculus, UniProt Q8BKA3)
T1 construct: host or cells: mouse N2A cells
T1 sequence (Q8BKA3 1-608): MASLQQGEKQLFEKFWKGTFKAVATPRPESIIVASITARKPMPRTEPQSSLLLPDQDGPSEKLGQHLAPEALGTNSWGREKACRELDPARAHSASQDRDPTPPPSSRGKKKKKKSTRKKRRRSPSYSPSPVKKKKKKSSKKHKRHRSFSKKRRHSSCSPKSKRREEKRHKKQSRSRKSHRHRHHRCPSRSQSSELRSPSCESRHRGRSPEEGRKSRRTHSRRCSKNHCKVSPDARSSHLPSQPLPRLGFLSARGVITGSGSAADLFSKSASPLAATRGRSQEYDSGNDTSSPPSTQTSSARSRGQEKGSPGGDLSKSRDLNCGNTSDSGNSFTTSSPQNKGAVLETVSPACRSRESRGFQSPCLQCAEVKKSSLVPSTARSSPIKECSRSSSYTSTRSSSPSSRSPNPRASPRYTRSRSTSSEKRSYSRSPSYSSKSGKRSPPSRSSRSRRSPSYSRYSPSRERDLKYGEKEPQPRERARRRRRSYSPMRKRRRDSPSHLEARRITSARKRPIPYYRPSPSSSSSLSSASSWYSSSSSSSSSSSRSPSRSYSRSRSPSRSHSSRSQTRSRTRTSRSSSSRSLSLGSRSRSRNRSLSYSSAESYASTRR
TEST NAME: AP-MS nSR100 interaction partners from mouse N2A cells (Table 5)
Type: binding
RUN PARAMETERS: bait Srrm4
MEASURE: AvgP (average of the SAINT scores)
Give the figure only, with no unit attached.

// query AvgP (average of the SAINT scores) value for entry Luc7l (protein, UniProt Q9CYI4 1-371, looked up) Putative RNA-binding protein …: MSAQAQMRALLDQLMGTARDGDETRQRVKFTDDRVCKSHLLDCCPHDILAGTRMDLGECTKIHDLALRADYEIASKERDLFFELDAMDHLESFIAECDRRTELAKKRLAETQEEISAEVSAKAEKVHELNEEIGKLLAKAEQLGAEGNVDESQKILMEVEKVRAKKKEAEEEYRNSMPASSFQQQKLRVCEVCSAYLGLHDNDRRLADHFGGKLHLGFIQIREKLDQLRKTVAEKQEKRNQDRLRRREEREREERLGRRSGSRTRDRRRSRSRDRRRRRSRSTSRERRKFSRSRSRDRYRRHRSRSRSHSRGHRRASRDRSTKYKFSRERSLREESWEYGRNERGPTDWRLENSNGKTASRRSEEKEAGEI
0.95
